# ASSAY_SUMMARY: clinical
# CONDITION_SUMMARY: human, in vivo, AUC, range
# From the text: To determine whether Abraxane PK has enough variability to benefit from therapeutic drug monitoring, we performed a PK analysis using all published literature on Abraxane PK. […] J Clin Oncol. 23:7785-93.). […] It is expected that Genexol-PM and Nanoxel would have the same PK variations. The wide variability of Abraxane was rather surprising. The role of therapeutic drug monitoring is to reduce this variability. Though PK profiles for Abraxane and Taxol were similar, there are differences. […]
OBSERVED_PROPERTY: AUC

Look up and state reported AUC for O=c1[nH]cc(F)c(=O)[nH]1
3900 to 16400 ng·h/mL

Hey, just so you know, these numbers are from patent US20140349862A1.
